- Assay protocol: Drug repurposing screens with cells derived from glioblastoma tumor samples (AID 1345199); further: potency means the concentration at half of the fitted maximal effect; nearly all actives have a fitted effect of over 40% in size
- Condition set: GBM patient neurospheres viability, ATP luminescence, 48 h; tumour line A
- Method: CD133+ cells were isolated from GBM patient biopsies and cultured as neurospheres. Neurospheres from four patients were used to screen the NCATS pharmaceutical collection (NPC) library of approved drugs and bioactive compounds. […] The neurospheres were incubated with drugs for 48 hours in 1536-well format, then assayed with an ATP content cell viability assay. […]
Records with an inconclusive call do not appear. Activity calls are given as the source filed them. The call rests on the fitted dose curve; in most records, active means well fitted inhibition curve with a large enough effect; inconclusive means small, poorly fitted or top-dose-only effect; inactive means flat fitted curve, though single readings scatter.
Measurement kind: Potency

* COCC(=O)Nc1cc(Sc2ccccc2)ccc1N=C(NC(=O)OC)NC(=O)OC | 6.31 µM (active)
* CC(C)N=c1cc2n(-c3ccc(Cl)cc3)c3ccccc3nc-2cc1Nc1ccc(Cl)cc1 | 5.01 µM (active)
* CO[C@H]1C=CO[C@@]2(C)Oc3c(C)c(O)c4c(O)c(c5c(c4c3C2=O)=NC2(CCN(CC(C)C)CC2)N=5)NC(=O)/C(C)=C\C=C/[C@H](C)[C@H](O)[C@@H](C)[C@@H](O)[C@@H](C)[C@H](OC(C)=O)[C@@H]1C | 10 µM (active)
* CN(C)CC/C=C1/c2ccccc2CSc2ccccc21 | 12.6 µM (active)
* CCN(CC)Cc1cc(Nc2ccnc3cc(Cl)ccc23)ccc1O | 12.6 µM (active)
* COC(=O)C1=C(C#N)NC(C)=C(C(=O)OC(C)C)C1c1cccc([N+](=O)[O-])c1 (stereo unspecified) | 14.1 µM (active)
* CN(C)CCCN1c2ccccc2C(C)(C)c2ccccc21 | 14.1 µM (active)
* C#C[C@]1(O)CC[C@H]2[C@@H]3CCC4=C/C(=N/O)CC[C@@H]4[C@H]3CC[C@@]21CC | 12.6 µM (active)
* C=C(NC(=O)C(=C)NC(=O)c1csc(C2=N[C@@H]3c4csc(n4)[C@H]4NC(=O)c5csc(n5)[C@H]([C@](C)(O)[C@@H](C)O)NC(=O)[C@H]5CSC(=N5)C(=CC)NC(=O)C([C@@H](C)O)NC(=O)c5csc(n5)[C@]3(CC2)NC(=O)[C@H](C)NC(=O)C(=C)NC(=O)[C@H](C)NC(=O)C([C@@H](C)CC)NC2C=Cc3c([C@H](C)O)cc(nc3C2O)C(=O)O[C@@H]4C)n1)C(N)=O (stereo partly specified) | 11.2 µM (active)
* Nc1c(Br)cc(Br)cc1CNC1CCC(O)CC1 (stereo unspecified) | 14.1 µM (active)
* CC1=C(/C=C/C(C)=C/C=C/C(C)=C/CO)C(C)(C)CCC1 | 31.6 µM (active)
* Cc1ccccc1OCC(O)CNCCOc1ccc(C(N)=O)cc1 (stereo unspecified) | 17.8 µM (active)
* CCOc1ccc2c(c1)C(C)=CC(C)(C)N2 | 39.8 µM (active)
* C[C@]12O[C@H](C[C@]1(O)CO)n1c3ccccc3c3c4c(c5c6ccccc6n2c5c31)CNC4=O | 7.08 µM (active)
* O=C1CSC2(CCN(CCCN3c4ccccc4Sc4ccc(Cl)cc43)CC2)N1 | 3.16 µM (active)
* CCOC(=O)C1=C(C)NC(C)=C(C(=O)OCC)C1c1ccccc1C=CC(=O)OC(C)(C)C | 2.24 µM (active)

* * *

- Tested on: Es-2
- Assay protocol: Primary qHTS to identify gynecologic anti-cancer compounds using libraries of approved drugs and bioactive compounds (AID 1345084); further: on the % scale 0 is the no-effect control and ±100 the full control effect; nearly all actives have a fitted effect of over 55% in size
- Condition set: Gynecologic cancer cell panel viability, ATPlite luminescence, 48 h; series mostly up to 57.5 µM
Inconclusive results are not listed. Calls of active or inactive are those of the source. Calls follow the shape of the dose curve; as a rule, active = well fitted cell-killing curve with a large enough effect; inconclusive = small, poorly fitted or top-dose-only effect, or effect the other way; inactive = flat fitted curve, though single readings scatter.
Measurement kind: activity change, negative = cytotoxicity

• CC1=C2C3OC(=O)C(C)C3(O)CCC2(C)CCC1=O (stereo unspecified) = inactive
• CC(=O)O[C@@H]1[C@H](O[C@@H]2OC[C@](O)(CO)[C@H]2O)[C@@H](O[C@@H]2O[C@@H](C)[C@H](O)[C@@H](O)[C@H]2O)[C@H](OC(=O)[C@]23CCC(C)(C)C[C@H]2C2=CCC4[C@@]5(C)C[C@H](O)[C@H](O[C@@H]6O[C@H](C(=O)O)[C@@H](O)[C@H](O)[C@H]6O)[C@@](C)(C(=O)O)C5CC[C@@]4(C)[C@]2(C)CC3)O[C@@H]1C (stereo partly specified) = 1.8% [at 11.6 µM] (inactive)
• O=C(/C=C/c1c(C(=O)O)[nH]c2cc(Cl)cc(Cl)c12)Nc1ccccc1 = inactive
• CC(=O)OC(CSC1CCC(=O)OC(C)CCC(=O)C1)C(=O)O (stereo unspecified) = inactive
• C/C(=C\CCC(C)(O)c1ccc(C)cc1)C(=O)O (stereo unspecified) = inactive
• OC[C@H]1O[C@@H](n2cnc3c(NCc4ccc(O)cc4)ncnc32)[C@H](O)[C@@H]1O = inactive

Data provenance is PubChem BioAssay (NCATS).
